A collection of compounds and their measured melting point

Lookup: Value lookup for melting point; key = COCc1cc(-c2ncc(C(F)(F)F)cc2Cl)ccc1Cl
Found: 52 to 54 °C

Lookup: Sample O=C(CC1COC1)N[C@H]1CC[C@H](CCN2CCN(c3nccc4c3OCC4)CC2)CC1 — what was its melting point?
Found: 175 °C

* * *

Measured melting point, listed per entry for reference.

See these solved cases before continuing.
molecule	melting point
CCCCOC(=O)N(C)c1cccc(-c2ccnc3c(C#N)cnn23)c1	96 to 97 °C
CNS(=O)(=O)c1ccc2c(c1)S(=O)(=O)NC1CCCN21 (stereo unspecified)	244 to 245 °C
COc1ccc(C(Sc2ccc3ccccc3c2N)C(O)C(=O)O)cc1 (stereo unspecified)	160 to 161 °C
CCCCOC(=O)c1c(C)nc2cc(OC)c(OC)cc2c1-c1ccc(OC)c(OC)c1	119 to 120 °C
CC(C)(Oc1ccc(CCC(=O)c2ccc(-c3ccccc3)s2)c(Cl)c1Cl)C(=O)O	179 to 180 °C
COc1nc(C)nc(OC)c1[N+](=O)[O-]	114 to 115 °C
CCOC(=O)Cc1sc(Sc2cc(C(=O)OC)nc3ccccc23)nc1C	94 to 95 °C
CN(C)C=Nc1ncc(S(=O)(=O)NC(C)(C)C)c(O)n1	258 to 261 °C
COc1ccc(-c2cc(=Nc3c(C)cc(C)cc3C)n(C)c(NNC=O)n2)cc1OC	136 to 143 °C
Nc1c2c(nc3ccccc13)CCCC2N1CCOCC1 (stereo unspecified)	215 to 217 °C

Please find the next molecule below.
Lookup: Requested read-out: melting point. Entry: Cc1c(NC(=O)c2ccc(OCc3ccc(C(F)(F)F)cc3)cc2)ccc2cc(CN3CCCC3)cnc12
Found: 196 to 197 °C

* * *

Attribute: melting point

Lookup: I am curious: what melting point value has been reported for COc1cc2nc(N3CCN(c4nc5cccccc-5n4)CC3)nc(N)c2cc1OC ?
Found: 189 to 193 °C

Lookup: Please give the measured melting point for this compound: CCCCCCCCCCCCc1nnc(C(C(=O)Nc2c(OC)cc(OC)cc2OC)c2ccccc2)o1 (configuration not stated)
Found: 120 to 121 °C

Lookup: What value of measured melting point is listed for CC(CO)(CO)NS(=O)(=O)c1cc(NC(=O)c2cnn3c(C(F)F)cc(-c4ccc(C(F)(F)F)cc4)nc23)c(Cl)s1 ?
Found: 237 °C

Lookup: Field request: melting point | item: CCOP(=O)(OCC)c1cccc(C)c1I
Found: 56 to 58 °C

Lookup: Reported melting point, compound CCOC(=O)c1nnc2ccc([N+](=O)[O-])cc2c1O : ____
Found: 294 to 296 °C

Lookup: May I ask what melting point has been recorded for Nc1nc(N)c(-c2cc(Cl)ccc2Cl)c(C(F)(F)F)n1 ?
Found: 215 to 217 °C

Lookup: Quick one: melting point of CNC(=S)Nc1ccc(Cc2cc(C)c(C(=O)c3ccc(Cl)cc3)n2C)nc1 ?
Found: 135 °C

Lookup: Look at this compound and give its reported melting point. COc1ccc(-c2ocnc2-c2cc(OC)c(N)c(OC)c2)cc1O
Found: 126 to 130 °C

Lookup: Item under review: c1ccc(-c2nc(-c3ccc4c(c3)OCO4)c3cc4c(cc3n2)OCO4)cc1 . Reported melting point?
Found: 225 to 230 °C

Lookup: // returns reported melting point for input COCCN(CCOC)c1ccc(Nc2ncc3c(C)c(C(C)=O)c(=O)n(C4CCCC4)c3n2)nc1
Found: 138 °C

Lookup: Which melting point value is on record for CS(=O)(=O)Nc1cc2c(cc1Oc1ccc(F)cc1F)CCC2 ?
Found: 85 to 87 °C

Lookup: Given Cn1nc(CNC(=O)c2ccccc2)nc1NCCCOc1cccc(CN2CCCCC2)c1 , state its recorded melting point.
Found: 70 °C

* * *

Property: melting point; scope: individual compounds

The following compounds have reported results that may help.
compound	melting point
O=C(O)CNc1nccc(-c2nc(=O)c3ccccc3s2)n1	283 to 284 °C
CCOC(=O)c1ccc(CO)cn1	64 °C
CCCCCCc1c(C(C)C)nc(C(C)C)c(CO)c1-c1ccc(F)cc1	93 to 95 °C
COc1cc(Nc2nccc(S(=O)(=O)c3ccccc3)n2)cc(OC)c1OC	110 °C
Cc1cc2c(cc1N)OC(=O)C2C (centres undefined)	123 to 124 °C

Lookup: # melting point lookup, item CC(C)(C)C1(O)OC(=O)c2ccc(Cl)cc21 (centres undefined)
Found: 160 to 161 °C

Lookup: Looking for the measured melting point of Cc1nc(N)nc(N)c1C#CCc1ccccc1 , can you help?
Found: 145 to 149 °C

Lookup: Would you mind telling me what melting point value was observed for COc1ccccc1N1CCN(CCCCNc2cc(Cl)nnc2Cl)CC1 ?
Found: 155 to 170 °C

Lookup: Any idea what its melting point is? The compound is CC(C)c1ccc2c(c1)OCc1ccc(C#N)cc1C2=O
Found: 101 to 108 °C

Lookup: Query (compound): O=C(O)c1ccc(F)cc1NC(=O)C(F)(F)F ; field requested: melting point
Found: 166 to 168 °C

Lookup: State the recorded melting point for this entry: CON=C1C=C(NC(=O)N(N)CCO)C(Cl)=C(C)C1Cl (centres undefined)
Found: 152 to 156 °C

* * *

Measured melting point, listed per entry.

Example compounds with recorded melting point:
compound	melting point
COC(=O)CCC#Cc1cc(Cl)ccc1NS(=O)(=O)c1cccc(Cl)c1Cl	64 °C
NCc1cccc(N2C(=O)N(c3ccccc3Br)Cc3cnc(Nc4ccccc4)nc32)c1	121 °C
O=C(Nc1ccc(F)cc1)O[C@@H]1CN=C(c2ccccc2)O[C@H]1c1ccccc1 (racemic)	158 °C
CC(=O)c1oc2ccccc2c1NC(=O)/C(C#N)=C(/C)O	206 to 208 °C
CCOCc1nc2c(N)nc3cc(OCc4ccccc4)ccc3c2n1CC(C)(C)NS(C)(=O)=O	264 to 266 °C

Lookup: Return reported melting point; argument: NC1=Nc2ccc(Cl)cc2C2CCCC12F (stereo not given)
Found: 223 °C

Lookup: Entry Nc1n[nH]c2c1cnc1c(NC(=O)c3c(Cl)cccc3Cl)cccc12 has what melting point?
Found: > 300 °C

Lookup: Fill blank: measured melting point of the compound BrC=C1c2ccccc2CCc2ccccc21 is ____.
Found: 73.6 °C

Lookup: What measured melting point goes with Cc1cnnc2ccccc12 ?
Found: 70 to 72 °C

Lookup: Record request: melting point value, item N#CCCNC(=O)Nc1cc(N2CC(c3ccccc3)CC2=O)ccn1 (stereo not given)
Found: 260 to 263 °C

Lookup: What measured melting point goes with CC(C)(C)OC(=O)NCc1cccc(Nc2ncnc3[nH]cc(C(=O)c4ccccc4)c23)c1 ?
Found: 210 to 212 °C

* * *

recorded_endpoint: melting point

Answered cases to consult:
molecule	melting point
CC(=O)N1CCC(c2n[nH]c3cc(Cl)ccc23)CC1	172 to 174 °C
CC(=O)OCC(=O)C1(OC(C)=O)CCC2C3CCC4=CC(=O)C=CC4(C)C3C(O)CC21C (stereo not given)	99.5 °C
NC(=O)NC(=O)c1ccccn1	183 to 185 °C
NS(=O)(=O)c1ccc(-c2cn(-c3nc(-c4ccc(F)cc4)cc(C(F)(F)F)n3)cn2)s1	244 °C
CCCc1nc2c(C)cc(-c3nc4ccccc4n3C)cc2n1Cc1ccc(-c2ccccc2S(=O)(=O)O)cc1	307 to 310 °C

Lookup: Need melting point of O=C(CNC(=O)OCc1ccccc1)NCCCCCCO , thanks.
Found: 104 to 105 °C

Lookup: What melting point value was documented for this molecule, Cc1c(C)c2c(c(C)c1O)SC(CCCI)O2 (stereo not given) ?
Found: 72 to 75 °C

Lookup: Reported melting point for CC(C)C(NC(=O)Nc1ccc(C(=O)NCC(=O)OCc2ccccc2)cc1)C(=O)N1CCCC1C(=O)NC(C(=O)C(F)(F)F)C(C)C (mixture of isomers) : what is it?
Found: 65 to 70 °C

Lookup: I am curious: what melting point value has been reported for CCCCCNC(=O)c1cnc2cccc(C)n2c1=O ?
Found: 112 to 116 °C

Lookup: Reported melting point for OCCCC(c1c[nH]c2ccccc12)c1c[nH]c2ccccc12 : what is it?
Found: 110 to 115 °C

* * *

recorded_endpoint: melting point

Lookup: Requested read-out: melting point. Entry: O=c1[nH]c2ccc(S(=O)(=O)N(CCO)CCO)cc2[nH]c1=O
Found: 272 to 276 °C

* * *

Attribute: melting point

Check out these entries, answers already filled in.
given_smiles	recorded_endpoint	reported_result
COc1ccc(-c2coc3ccc(-c4nnc(SCc5cccc(F)c5)o4)cc23)cc1	melting point	146 to 147 °C
COC(=O)c1cc(OCc2ccc3ccccc3n2)no1	melting point	133 to 134 °C

# evaluate next
Lookup: I would be grateful if you could share the reported melting point for Oc1ccc(-c2[nH]c3ccccc3c2Cn2ccnc2)cc1 .
Found: 245 to 247 °C
